Reference source: the RNAGym collection of RNA variant scans (doi:10.1093/molbev/msab373)

Quick reference for reverse-splicing fitness among some variants
B1: Azoarcus group I ribozyme (parent)
chain: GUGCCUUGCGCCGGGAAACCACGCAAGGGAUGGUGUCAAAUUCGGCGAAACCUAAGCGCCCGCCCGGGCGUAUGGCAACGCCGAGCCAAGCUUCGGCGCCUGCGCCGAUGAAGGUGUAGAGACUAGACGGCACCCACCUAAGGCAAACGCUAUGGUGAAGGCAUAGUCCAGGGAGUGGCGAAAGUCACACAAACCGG

# Variants of: B1
# protocol_details: reverse-splicing fitness (ratio to wild type); higher = more active; in vitro selection; Mg2+ level not given
value_kind: reverse-splicing fitness

                            sequence_variant                value_kind  test_result
 0        C82G A111G A120G C150U C169G U176A  reverse-splicing fitness       0.0182
 1                   A120U A145C C169G U176C  reverse-splicing fitness       0.0504
 2        C82A A111C A120G A145C C150A C169A  reverse-splicing fitness      0.00794
 3             A111C A120U A145G C150A U176C  reverse-splicing fitness       0.0554
 4                         A111C A145G C169A  reverse-splicing fitness       0.0355
 5                    C82G A111C A120C C150A  reverse-splicing fitness       0.0114
 6        C82G A111G A120C C150A C169U U176G  reverse-splicing fitness      0.00877
 7             A111G A120C A145G C150G C169A  reverse-splicing fitness      0.00936
 8        C82G A111C A120U A145C C150G C169G  reverse-splicing fitness       0.0033
 9        C82A A111C A120G A145C C150A C169G  reverse-splicing fitness      0.00754
10             A111C A145G C150U C169A U176A  reverse-splicing fitness       0.0141
11       A111C A120G A145G C150U C169A U176G  reverse-splicing fitness      0.00548
12  C82G A111U A120C A145G C150G C169U U176C  reverse-splicing fitness       0.0123
13             A111C A120C C150A C169G U176G  reverse-splicing fitness      0.00744
14       A111C A120U A145U C150G C169G U176A  reverse-splicing fitness      0.00267
15        C82G A111C A120U A145G C150U C169A  reverse-splicing fitness      0.00785
16  C82A A111U A120U A145G C150G C169U U176C  reverse-splicing fitness       0.0089
17        C82U A111C A145C C150A C169U U176C  reverse-splicing fitness       0.0106
18              C82A A111U A145U C150G U176G  reverse-splicing fitness      0.00528
19              C82U A120G A145U C169U U176G  reverse-splicing fitness      0.00326
20  C82A A111C A120U A145G C150U C169U U176C  reverse-splicing fitness      0.00469
21                    C82U A111C A120U C169A  reverse-splicing fitness      0.00322
